The values you see were collected from patent US10004732B2.

TARGET ENTITY: Vps34 (Homo sapiens)
Sequence (Q8NEB9 whole entry, species assumed): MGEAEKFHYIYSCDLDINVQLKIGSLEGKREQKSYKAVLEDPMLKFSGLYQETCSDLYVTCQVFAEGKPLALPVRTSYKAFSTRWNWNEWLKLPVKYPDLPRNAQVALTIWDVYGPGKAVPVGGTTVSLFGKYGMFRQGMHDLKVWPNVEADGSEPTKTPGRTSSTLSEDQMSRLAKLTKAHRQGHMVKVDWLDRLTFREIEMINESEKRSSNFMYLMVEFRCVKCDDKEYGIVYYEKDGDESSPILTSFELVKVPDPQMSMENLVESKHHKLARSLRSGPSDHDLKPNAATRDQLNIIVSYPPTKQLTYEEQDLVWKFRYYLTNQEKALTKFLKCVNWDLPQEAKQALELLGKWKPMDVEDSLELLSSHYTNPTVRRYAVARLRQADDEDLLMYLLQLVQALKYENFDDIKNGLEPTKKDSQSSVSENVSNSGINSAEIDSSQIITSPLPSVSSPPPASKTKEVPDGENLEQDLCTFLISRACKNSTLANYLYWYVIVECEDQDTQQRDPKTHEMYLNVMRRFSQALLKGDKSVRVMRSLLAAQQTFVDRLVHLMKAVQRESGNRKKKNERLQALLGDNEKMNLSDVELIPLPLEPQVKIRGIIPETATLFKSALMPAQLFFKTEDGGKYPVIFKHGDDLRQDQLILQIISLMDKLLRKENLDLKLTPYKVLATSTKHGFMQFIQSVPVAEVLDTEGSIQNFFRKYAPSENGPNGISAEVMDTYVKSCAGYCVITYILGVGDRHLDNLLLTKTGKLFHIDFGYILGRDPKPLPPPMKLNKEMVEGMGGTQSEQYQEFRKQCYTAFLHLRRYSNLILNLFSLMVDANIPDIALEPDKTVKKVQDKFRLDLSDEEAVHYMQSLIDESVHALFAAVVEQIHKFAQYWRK
ASSAY PROTOCOL: Kinase Glo Luminescent Kinase Assay (Kglo), assay C
Assay type: biochemical
CONDITION DETAILS: read-out: Assay C VPS34 IC50
pIC50: −log10 of the molar value. Where a name gives a salt, the structure may show the parent alone.
MEASURE NAME: pIC50

Sample answers from the record:
CCc1noc(-c2nc(-c3cc(S(=O)(=O)NCCC(C)(C)O)ccc3C)cnc2N)n1 [Example 136]    < 5.04
Cc1ccc(S(=O)(=O)NC[C@H]2CCNC2)cc1-c1cnc(N)c(-n2cncn2)n1 [Example 127.58, trifluoroacetic acid salt]    < 5.00
Cc1ccc(S(=O)(=O)NC2CC3(CC(O)C3)C2)cc1-c1cnc(N)c(-n2cncn2)n1 (stereo not shown) [Example 67]    5.74
Cc1ccc(S(=O)(=O)N2CC3(CC(O)C3)C2)cc1-c1cnc(N)c(-n2cncn2)n1 [Example 101]    < 5.00
CCCn1cc(-c2nc(-c3cc(S(=O)(=O)NCCC(C)(C)O)ccc3C)cnc2N)cn1 [Example 119.25]    < 5.04
Cc1ccc(S(=O)(=O)NCC2(C(N)=O)CC2)cc1-c1cnc(N)c(-n2cncn2)n1 [Example 127.56]    < 5.00

Request: Lab request: please report pIC50 under test system Vps34 (Homo sapiens) for Cc1ccc(S(=O)(=O)NC[C@@H]2CCC(C)(C)O2)cc1-c1cnc(N)c(-n2cncn2)n1 [Example 127.39]
Result: < 5.00

---

TARGET ENTITY: PI 3-kinase delta (Homo sapiens)
Sequence (O00329 whole entry, one chain of several): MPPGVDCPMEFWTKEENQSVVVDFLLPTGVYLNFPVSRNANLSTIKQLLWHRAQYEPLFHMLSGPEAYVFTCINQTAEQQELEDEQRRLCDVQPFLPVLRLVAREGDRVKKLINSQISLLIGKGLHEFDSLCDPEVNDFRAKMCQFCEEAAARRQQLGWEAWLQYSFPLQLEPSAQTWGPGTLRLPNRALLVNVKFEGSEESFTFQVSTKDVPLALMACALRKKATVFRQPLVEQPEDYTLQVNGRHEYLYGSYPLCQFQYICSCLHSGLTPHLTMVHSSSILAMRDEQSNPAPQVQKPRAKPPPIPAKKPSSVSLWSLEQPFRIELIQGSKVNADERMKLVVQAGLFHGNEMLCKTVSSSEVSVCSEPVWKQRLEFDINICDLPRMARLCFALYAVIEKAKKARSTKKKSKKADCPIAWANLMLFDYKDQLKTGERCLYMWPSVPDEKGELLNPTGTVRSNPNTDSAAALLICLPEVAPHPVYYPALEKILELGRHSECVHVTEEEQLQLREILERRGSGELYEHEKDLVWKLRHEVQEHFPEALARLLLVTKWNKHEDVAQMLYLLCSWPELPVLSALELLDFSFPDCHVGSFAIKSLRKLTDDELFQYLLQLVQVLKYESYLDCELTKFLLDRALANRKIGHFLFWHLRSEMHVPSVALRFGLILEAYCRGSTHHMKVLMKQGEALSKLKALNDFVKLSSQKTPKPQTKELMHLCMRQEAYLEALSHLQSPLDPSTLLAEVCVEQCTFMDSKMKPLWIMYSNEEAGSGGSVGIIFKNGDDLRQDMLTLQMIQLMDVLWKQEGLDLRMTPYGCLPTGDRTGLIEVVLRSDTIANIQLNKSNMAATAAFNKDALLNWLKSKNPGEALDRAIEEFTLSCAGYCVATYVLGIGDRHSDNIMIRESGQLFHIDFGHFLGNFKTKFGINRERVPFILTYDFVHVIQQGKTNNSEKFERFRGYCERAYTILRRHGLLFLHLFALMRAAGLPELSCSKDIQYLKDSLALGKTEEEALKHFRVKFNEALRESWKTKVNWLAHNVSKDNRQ
ASSAY PROTOCOL: TR-FRET Adapta assay, assay F
CONDITION DETAILS: read-out: Assay F PI3Kδ IC50
MEASURE NAME: IC50 (nM)

Cc1ccc(S(=O)(=O)NCCC(C)(C)O)cc1-c1cnc(N)c(-c2cn(C)nc2C)n1    240

[1] Cc1ccc(S(=O)(=O)NOCC(C)C)cc1-c1cnc(N)c(-n2cncn2)n1
[2] Cc1ccc(S(=O)(=O)NCC2(O)CCCCC2)cc1-c1cnc(N)c(-n2cncn2)n1
[3] Cc1ccc(S(=O)(=O)NCCC(C)(C)O)cc1-c1cnc(N)c(-c2cccnc2Cl)n1
Request: Hey, quick one: sort these by IC50, largest value first please. Put the labels in the requested order and write them down.
Result: 2, 3, 1
(2: 760 nM, 3: 380 nM, 1: 190 nM)

---

ASSAY PROTOCOL: Microsomal clearance assay (M)
CONDITION DETAILS: intrinsic clearance in rat liver microsomes
MEASURE NAME: Assay M RLM CI(int) (µL/min/mg)

Sample answers from the record:
Cc1cc(-c2nc(-c3cc(S(=O)(=O)NCCC(C)(C)O)ccc3C)cnc2N)n(C)n1 [Example 119.36]    48
Cc1ccc(S(=O)(=O)N[C@H]2CC[C@H](O)CC2)cc1-c1cnc(N)c(-c2ccncc2)n1 [Example 11]    78
Cc1ccc(S(=O)(=O)NCCC(C)(C)O)cc1-c1cnc(N)c(-c2cn[nH]c2)n1 [Example 119.33]    50
Cc1csc(-c2nc(-c3cc(S(=O)(=O)NCCC(C)(C)O)ccc3C)cnc2N)c1 [Example 119.43]    136
Cc1ccc(S(=O)(=O)NCCC(C)(C)O)cc1-c1cnc(N)c(-c2cc[nH]n2)n1 [Example 119.42]    41
Cc1ccc(S(=O)(=O)NCCC(O)C(F)(F)F)cc1-c1cnc(N)c(-c2cnn(C)c2)n1 (stereo not shown) [Example 51]    55
CC(C)(O)CNS(=O)(=O)c1ccc(Cl)c(-c2cnc(N)c(-n3cncn3)n2)c1 [Example 37]    33
COCCCNS(=O)(=O)c1ccc(C)c(-c2cnc(N)c(-c3ccnc(C)c3)n2)c1 [Example 129.11]    105
Cc1ccc(S(=O)(=O)NC2CC2)cc1-c1cnc(N)c(-n2cncn2)n1 [Example 127.53]    129
Cc1noc(-c2nc(-c3cc(S(=O)(=O)NCC(C)(C)CO)ccc3C)cnc2N)n1 [Example 92]    64

[P] Cc1ccc(S(=O)(=O)NCCC(C)(C)O)cc1-c1cnc(N)c(-c2cnn(C)c2)n1 [Example 119.16]
[Q] Cc1ncc(-c2nc(-c3cc(S(=O)(=O)NC4CC(O)C4)ccc3C)cnc2N)s1 (mixture of isomers) [Example 43]
Request: Between the entries labeled P and Q , whose measured Assay M RLM CI(int) is lower? Respond using the label that marks the chosen record.
Result: P

---

TARGET ENTITY: PI 4-kinase beta (Homo sapiens)
Sequence (Q9UBF8 whole entry): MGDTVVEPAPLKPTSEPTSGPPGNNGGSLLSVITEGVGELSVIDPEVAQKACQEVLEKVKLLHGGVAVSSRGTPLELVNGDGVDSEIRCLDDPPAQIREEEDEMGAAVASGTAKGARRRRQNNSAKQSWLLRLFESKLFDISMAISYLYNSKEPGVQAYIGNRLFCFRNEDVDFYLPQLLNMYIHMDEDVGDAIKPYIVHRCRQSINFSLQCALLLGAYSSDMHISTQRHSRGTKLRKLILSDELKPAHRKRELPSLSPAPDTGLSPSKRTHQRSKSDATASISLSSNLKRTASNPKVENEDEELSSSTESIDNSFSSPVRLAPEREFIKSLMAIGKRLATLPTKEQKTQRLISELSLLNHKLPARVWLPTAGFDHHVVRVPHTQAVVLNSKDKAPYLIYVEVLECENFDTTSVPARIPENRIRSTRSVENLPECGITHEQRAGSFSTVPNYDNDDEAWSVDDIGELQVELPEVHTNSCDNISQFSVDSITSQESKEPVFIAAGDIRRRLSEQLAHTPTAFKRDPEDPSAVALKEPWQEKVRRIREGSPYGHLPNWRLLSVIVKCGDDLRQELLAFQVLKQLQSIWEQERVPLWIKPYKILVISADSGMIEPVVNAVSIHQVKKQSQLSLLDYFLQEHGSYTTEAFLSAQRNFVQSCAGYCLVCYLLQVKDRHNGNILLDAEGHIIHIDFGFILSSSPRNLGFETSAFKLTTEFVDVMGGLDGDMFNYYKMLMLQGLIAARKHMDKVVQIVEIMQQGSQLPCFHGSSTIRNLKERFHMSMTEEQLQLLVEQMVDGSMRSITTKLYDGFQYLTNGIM
ASSAY PROTOCOL: Kinase Glo Luminescent Kinase Assay (Kglo), assay D
Assay type: biochemical
CONDITION DETAILS: read-out: Assay D PI4Kβ IC50
pIC50: −log10 of the molar value.
MEASURE NAME: pIC50

Sample answers from the record:
Cc1ccc(S(=O)(=O)NCCC(C)(C)O)cc1-c1cnc(N)c(-c2cscn2)n1    6.19
Cc1ccc(S(=O)(=O)NCCC(C)(C)O)cc1-c1cnc(N)c(-n2cnc(C3CC3)n2)n1    5.26
Cc1cc(-c2nc(-c3cc(S(=O)(=O)N[C@H]4CC[C@@H](O)CC4)ccc3C)cnc2N)ccn1    5.35
Cc1ccc(S(=O)(=O)NCCC(C)(C)O)cc1-c1cnc(N)c(-c2cn[nH]c2)n1    6.00
Cc1ccc(S(=O)(=O)NCC(C)(C)O)cc1-c1cnc(N)c(-c2cc(C3CC3)no2)n1    5.41
Cc1ccc(S(=O)(=O)NCC2(C)COC2)cc1-c1cnc(N)c(-c2cn(C)nc2C)n1    5.08
Cc1ccc(S(=O)(=O)NCCC(C)(C)O)cc1-c1cnc(N)c(-c2cccnc2Cl)n1    5.11
Cc1ccc(S(=O)(=O)NCC[C@@H](O)C(F)(F)F)cc1-c1cnc(N)c(-c2cn(C)nc2C)n1 (single isomer, unassigned) [Example 52a]    5.26
Cc1ccc(S(=O)(=O)NCCF)cc1-c1cnc(N)c(-n2cncn2)n1    5.08
Cc1ccc(S(=O)(=O)NCCC(F)(F)F)cc1-c1cnc(N)c(-n2cncn2)n1    5.31

[P] COc1cc(-c2nc(-c3cc(S(=O)(=O)NCCC(C)(C)O)ccc3C)cnc2N)ccn1
[Q] Cc1ncc(-c2nc(-c3cc(S(=O)(=O)NC4CC(O)C4)ccc3C)cnc2N)s1 (mixture of isomers)
Request: Which item exceeds the other in pIC50, P or Q ? Respond using the label that marks the chosen record.
Result: Q
(Q: 5.85, P: 5.13)

---

TARGET ENTITY: PI 3-kinase beta (Homo sapiens, UniProt P42338)
Sequence (P42338 whole entry): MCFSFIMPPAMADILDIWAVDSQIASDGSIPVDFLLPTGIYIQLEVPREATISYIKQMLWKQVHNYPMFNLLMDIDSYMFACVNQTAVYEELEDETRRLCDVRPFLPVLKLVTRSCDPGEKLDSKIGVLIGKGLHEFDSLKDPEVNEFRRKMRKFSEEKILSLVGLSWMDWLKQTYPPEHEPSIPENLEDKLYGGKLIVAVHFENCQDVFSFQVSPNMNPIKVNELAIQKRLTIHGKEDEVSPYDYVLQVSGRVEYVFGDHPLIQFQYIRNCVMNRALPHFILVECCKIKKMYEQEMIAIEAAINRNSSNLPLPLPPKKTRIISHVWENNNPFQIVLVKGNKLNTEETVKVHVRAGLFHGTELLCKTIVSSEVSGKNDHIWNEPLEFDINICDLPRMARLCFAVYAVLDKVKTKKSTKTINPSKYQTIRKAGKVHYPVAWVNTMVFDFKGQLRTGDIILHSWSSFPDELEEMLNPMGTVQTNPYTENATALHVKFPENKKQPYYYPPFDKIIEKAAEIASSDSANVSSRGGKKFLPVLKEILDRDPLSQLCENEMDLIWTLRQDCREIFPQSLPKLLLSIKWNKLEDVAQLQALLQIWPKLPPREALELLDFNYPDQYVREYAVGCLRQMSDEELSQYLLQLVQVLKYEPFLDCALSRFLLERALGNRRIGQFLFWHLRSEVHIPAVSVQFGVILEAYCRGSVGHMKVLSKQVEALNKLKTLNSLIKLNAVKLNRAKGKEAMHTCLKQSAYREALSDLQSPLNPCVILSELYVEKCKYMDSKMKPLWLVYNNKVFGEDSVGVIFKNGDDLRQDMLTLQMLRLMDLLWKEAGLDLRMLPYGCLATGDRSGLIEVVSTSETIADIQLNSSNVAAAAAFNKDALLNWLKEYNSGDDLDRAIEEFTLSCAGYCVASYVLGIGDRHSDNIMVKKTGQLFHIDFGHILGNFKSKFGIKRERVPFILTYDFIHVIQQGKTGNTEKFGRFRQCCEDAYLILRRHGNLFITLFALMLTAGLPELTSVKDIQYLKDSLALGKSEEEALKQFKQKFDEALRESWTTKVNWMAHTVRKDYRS
Sequence (P27986 461-568 partner): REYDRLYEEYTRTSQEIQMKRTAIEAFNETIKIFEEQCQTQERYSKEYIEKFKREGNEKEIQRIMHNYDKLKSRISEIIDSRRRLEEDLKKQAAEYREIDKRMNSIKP
ASSAY PROTOCOL: Kinase Glo Luminescent Kinase Assay (Kglo), assay B
Type: biochemical
CONDITION DETAILS: read-out: Assay B PI3Kβ IC50
MEASURE NAME: IC50 (nM)

Sample answers from the record:
Cc1ccc(S(=O)(=O)NCC(C)(F)F)cc1-c1cnc(N)c(-n2cncn2)n1    1700
Cc1ccc(S(=O)(=O)NCC(C)(C)O)cc1-c1cnc(N)c(-c2cc(C3CC3)no2)n1    1200
CCN1CCC[C@H]1CNS(=O)(=O)c1ccc(C)c(-c2cnc(N)c(-c3cn(C)nc3C)n2)c1    3000
Cc1ccc(S(=O)(=O)NCC(C)(C)O)cc1-c1cnc(N)c(-n2cnc(C3CC3)n2)n1    3000

[1] Cc1ccc(S(=O)(=O)NOCC(C)(C)O)cc1-c1cnc(N)c(-n2cncn2)n1
[2] Cc1ccc(S(=O)(=O)NCCC(C)(C)O)cc1-c1cnc(N)c(-c2cnc(Cl)cc2C)n1
Request: Between the entries labeled 1 and 2 , whose measured IC50 is lower? Respond using the label that marks the chosen record.
Result: 1

[1] Cc1cc(-c2nc(-c3cc(S(=O)(=O)NC[C@H]4CCNC4)ccc3C)cnc2N)ccn1
[2] Cc1ccc(S(=O)(=O)NCC2CCCCO2)cc1-c1cnc(N)c(-n2cncn2)n1 (stereo not shown)
Request: Between the entries labeled 1 and 2 , whose measured IC50 is lower? Respond using the label that marks the chosen record.
Result: 2
(2: 1200 nM, 1: 6900 nM)

---

TARGET ENTITY: mTOR (Homo sapiens)
ASSAY PROTOCOL: Lanthascreen kinase binding assay, assay G
CONDITION DETAILS: read-out: Assay G mTOR IC50
pIC50: −log10 of the molar value.
MEASURE NAME: pIC50

Cc1cc(-c2nc(-c3cc(S(=O)(=O)NC[C@H]4CCCO4)ccc3C)cnc2N)ccn1    5.06
Cc1ccc(S(=O)(=O)NCC2(CO)COC2)cc1-c1cnc(N)c(-n2cncn2)n1    5.25
Cc1cc(-c2nc(-c3cc(S(=O)(=O)NCCC(C)(C)O)ccc3C)cnc2N)ccn1    5.22
Cc1ccc(S(=O)(=O)N[C@H]2CCOC2)cc1-c1cnc(N)c(-n2cncn2)n1    5.52
Cc1ccc(S(=O)(=O)NCCC(C)(C)O)cc1-c1cnc(N)c(-c2cc(C3CC3)no2)n1    5.63
Cc1ccc(S(=O)(=O)NCCC(C)(C)O)cc1-c1cnc(N)c(-c2nc(C3CC3)no2)n1    5.66
Cc1ccc(S(=O)(=O)NCC(F)(F)F)cc1-c1cnc(N)c(-n2cncn2)n1    5.59
Cc1ccc(S(=O)(=O)NCC(C)(C)O)cc1-c1cnc(N)c(-n2cncn2)n1    5.05

[a] Cc1ncc(-c2nc(-c3cc(S(=O)(=O)NCC(C)(C)CO)ccc3C)cnc2N)s1
[b] COC1(C)CN(S(=O)(=O)c2ccc(C)c(-c3cnc(N)c(-c4cn(C)nc4C)n3)c2)C1
[c] Cc1cc(Cl)c(S(=O)(=O)NCC(C)(C)O)cc1-c1cnc(N)c(-n2cncn2)n1
[d] Cc1cc(C)c(S(=O)(=O)NCC(C)(C)O)cc1-c1cnc(N)c(-n2cncn2)n1
[e] CC(C)(O)CNS(=O)(=O)c1cccc(-c2cnc(N)c(-n3cncn3)n2)c1
Request: rank_up(items): orders items by reported pIC50 in ascending numerical order. Put the labels in the requested order and write them down.
Result: e, d, b, c, a

[P] Cc1csc(-c2nc(-c3cc(S(=O)(=O)NCCC(C)(C)O)ccc3C)cnc2N)c1
[Q] Cc1ncc(-c2nc(-c3cc(S(=O)(=O)NC4CCC(F)(F)CC4)ccc3C)cnc2N)s1
Request: Which item exceeds the other in pIC50, P or Q ? Respond using the label that marks the chosen record.
Result: Q
